- Tested on: Plasmodium falciparum Sir2 (PF13_0152, Sir2A)
- assay-details: pfSir2 binders on small-molecule microarrays, primary screen, biochemical, small-molecule microarray, 635 nm fluorescence (AID 1098);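 also: score merges spot fluorescence intensity with its signal-to-noise ratio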
- conditions-used: small-molecule microarray binding, fluorescence 635 nm; higher = more signal
Known composite z-score of a selection of compounds
Answer with a number only.

Answered examples (3):
Lab note: "C=CC[C@H](O)c1ccc(O)c2ccccc12" gave composite z-score of 0.623

Lab note: C=CCC(OC(C)=O)[C@@H]1[C@@H](N(Cc2ccc(-c3ccccc3)cc2)C(=O)Cc2ccc(OC)cc2)c2cc(OCCCO)ccc2N1C(=O)c1ccc2ccccc2c1 (some centres not stated) gave composite z-score of 0.0435

Lab note: "C=C(CCCC)C(=O)CC[C@H](OC(=O)c1ccccc1-c1ccccc1C(=O)O)c1cccc(OCCO)c1" gave composite z-score of 0.642

More entries:
Lab note: C[C@H]1C2[C@H](Cc3ccccc3)NC(=O)[C@]23C(=O)N[C@@H](Cc2ccccc2)C(=O)N2CCC[C@H]2C(=O)NC/C=C/CC/C=C/C3[C@@H]2O[C@]12C (some centres not stated) gave composite z-score of 1.26

Lab note: COc1ccc(C(O)C2C=CC3C(=O)N(C)C(=O)C3N2Nc2ccccc2)cc1 (configuration not stated) gave composite z-score of 0.454

Lab note: "C=C(COC)C(=O)CC[C@H](OC(C)=O)c1ccc(CO)o1" gave composite z-score of 1.44

Lab note: "C=CCNC(=O)[C@H]1[C@@H]2C(=O)O[C@@H](c3ccccc3)[C@@H](c3ccccc3)N2[C@@H](c2ccc(OCCO)cc2)[C@]12C(=O)N(C(=O)OCCOC)c1ccc(C#CCNC(N)=O)cc12" gave composite z-score of 1.27

Lab note: "C=C(C(=O)CC[C@@H](OC(=O)c1ccccc1-c1ccccc1C(=O)O)c1ccc(CO)o1)C(C)C" gave composite z-score of 1.07

Lab note: "[N-]=[N+]=NCc1ccccc1[C@H]1OC(c2ccc(OCCCO)cc2)=N[C@@]1(Cc1ccccc1N=[N+]=[N-])C(N)=O" gave composite z-score of 1

Lab note: N#Cc1ccc(NN2C(C(O)c3ccc(B(O)O)cc3)C=CC3CN(c4ccccc4)C(=O)C32)cc1 (configuration not stated) gave composite z-score of 0.35

Lab note: "COc1ccc(CCNC(=O)[C@@]2(C)c3ccccc3C(=O)N(Cc3ccc(OC(F)(F)F)cc3)[C@H]2c2ccc(CO)cc2)cc1" gave composite z-score of 0.738

====

- tgt: Streptavidin (Streptomyces avidinii) (UniProt P22629)
- Sequence (P22629 whole entry, looked up): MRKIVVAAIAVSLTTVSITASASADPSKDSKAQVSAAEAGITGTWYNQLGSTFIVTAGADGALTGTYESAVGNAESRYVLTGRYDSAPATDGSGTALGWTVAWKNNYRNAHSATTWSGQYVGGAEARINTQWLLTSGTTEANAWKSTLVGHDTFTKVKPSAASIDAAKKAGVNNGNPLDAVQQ
- assay-details: streptavidin binders on small-molecule microarray, primary screen, artefact control for SMM compound annotation, biophysical, 635/667 nm fluorescence (AID 1147);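 also: signal reflects streptavidin binding to arrayed compounds as a control protein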
- conditions-used: streptavidin binding, higher = more signal
Outcome: fulfilled for composite z-score of at least 0.6; not fulfilled for anything lower.

Known results for compounds:
Q: Is the recorded value of composite z-score equal to or greater than 0.6 for this compound? "COC(=O)[C@]1(Cc2ccccc2N=[N+]=[N-])N=C(c2ccc(OCCCO)cc2)O[C@@H]1c1ccccc1CN=[N+]=[N-]"
Ans: not fulfilled

Q: Is the recorded value of composite z-score equal to or greater than 0.6 for this compound? "CCCCCCc1nc(Cc2cc(OC)c(OC)c(OC)c2)c(C)c2c1[Si](C(C)C)(C(C)C)OC2"
Ans: not fulfilled

Q: Is the recorded value of composite z-score equal to or greater than 0.6 for this compound? "C=CCOC(=O)[C@@H]1[C@H]2C(=O)O[C@H](c3ccccc3)[C@H](c3ccccc3)N2[C@H](c2ccc(OCCOC(=O)[C@@H]3C[C@@H]4C(=O)N[C@@H](CC(C)C)C(=O)N4[C@@H]3c3ccc(O)cc3)cc2)[C@@]12C(=O)Nc1ccc(I)cc12"
Ans: fulfilled

Q: Is the recorded value of composite z-score equal to or greater than 0.6 for this compound? "CC(C)[Si](C#Cc1ccccc1)(O[C@H](c1ccccc1)c1cn(Cc2ccccc2)nn1)C(C)C"
Ans: fulfilled

Continue with the compound presented below.
Q: Is the recorded value of composite z-score equal to or greater than 0.6 for this compound? "COc1cc2c(cc1OC)CN(C(=O)[C@@H]1[C@H]3C(=O)O[C@H](c4ccccc4)[C@H](c4ccccc4)N3[C@H](c3ccc(O)cc3)[C@@]13C(=O)Nc1ccc(C#CC4=CCCCC4)cc13)CC2"
Ans: fulfilled

====

- Test system: Neuregulin-1 EGF-like domain
- assay-details: binders of neuregulin-1 EGF-like domain, primary screen, biochemical, small-molecule microarray, 635 nm fluorescence (AID 1081);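 also: binding of the protein to compounds printed on small-molecule microarray slides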
- conditions-used: small-molecule microarray binding, higher = more signal
Known composite z-score of a selection of compounds
Answer with a number only.

Lab note: "COc1ccc([Si](C)(C)[C@H]2[C@H](CC(=O)N(CCO)Cc3ccccc3)O[C@@]3(C(=O)N(Cc4ccc(N5C(=O)c6cccc7cccc5c67)cc4)c4ccccc43)[C@@H]2C)cc1" gave composite z-score of 1.14

Lab note: "CC(C)(C)OC(=O)N1[C@@H](C=C(Br)Br)COC1(C)C" gave composite z-score of 0.286

Lab note: "O=C1O[C@H](c2ccccc2)[C@H](c2ccccc2)N2[C@H]1[C@@H](C(=O)N1CCN(c3ncccn3)CC1)[C@]1(C(=O)Nc3ccc(C#CC4(O)CCCCCC4)cc31)[C@H]2c1ccc(O)cc1" gave composite z-score of 1.28

More entries:
Lab note: "Cc1ccc(S[C@]2(C(=O)NCc3ccccc3)CC(=O)N(Cc3ccccc3C(F)(F)F)[C@@H]2c2ccc(CO)cc2I)cc1" gave composite z-score of 0.472

Lab note: "COCCOC(=O)N1C(=O)[C@@]2(c3cc(C#CCC(C(=O)OC)C(=O)OC)ccc31)[C@H](C(N)=O)[C@H]1C(=O)O[C@H](c3ccccc3)[C@H](c3ccccc3)N1[C@@H]2c1ccccc1OCCO" gave composite z-score of 1.19

Lab note: "CC[C@@H](O[Si](C#C[Si](C(C)C)(C(C)C)C(C)C)(C(C)C)C(C)C)c1cn([C@H](C)c2ccccc2)nn1" gave composite z-score of 0.739

====

Known composite z-score of a selection of molecules
- assay-details: small-molecule binders of probe aLefty1, primary screen, biochemical, small-molecule microarray, 635/667 nm fluorescence (AID 1153);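 also: score merges spot fluorescence with signal-to-noise ratio from the scanned slide images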
- conditions-used: higher = more signal
Answer with a number only.

Answered examples (3):
Lab note: "C=CCNC(=O)[C@@H]1[C@H]2C(=O)O[C@H](c3ccccc3)[C@H](c3ccccc3)N2[C@H](c2ccc(OCCO)cc2)[C@@]12C(=O)Nc1ccc(C#CCNC(N)=O)cc12" gave composite z-score of 0.124

Lab note: O=C1NC(=O)C2C1C=CC(C(O)C(O)CO)N2Nc1ccccn1 (centres undefined) gave composite z-score of 0.586

Lab note: "COc1c(C)cc(-c2nc(-c3ccccc3)c3c(c2C)CO[Si]3(C(C)C)C(C)C)cc1C" gave composite z-score of 0.0505

More entries:
Lab note: "COc1ccc(CCNC(=O)[C@@H]2c3ccccc3C(=O)N(C(C)C)[C@H]2c2ccc(CO)cc2)cc1" gave composite z-score of -0.27

====

- tgt: Carbonic anhydrase 2 (Homo sapiens)
- assay-details: CAII small-molecule binders, profiling panel, biochemical, small-molecule microarray, Alexa647-labelled CAII (AID 1122)
- conditions-used: CAII-A647 binding fluorescence, higher = more signal
Known composite z-score of a selection of compounds

Answered examples (2):
Lab note: "C=C(/C=C\CNS(=O)(=O)c1ccc(C)cc1)[C@H](O)[C@H]1CCCN1S(=O)(=O)c1ccccc1[N+](=O)[O-]" gave composite z-score of 0.319

Lab note: "O=C(NC1CC1)[C@@H]1c2ccccc2C(=O)N(C2CCCCC2)[C@H]1c1ccc(CO)cc1" gave composite z-score of 0.554

More entries:
Lab note: "C=CCNC(=O)[C@H]1[C@@H]2C(=O)O[C@@H](c3ccccc3)[C@@H](c3ccccc3)N2[C@@H](c2ccc(OCCO)cc2)[C@]12C(=O)N(C(=O)OCCOC)c1ccc(C#CCC(C(=O)OC)C(=O)OC)cc12" gave composite z-score of 0.702

====

Known composite z-score of a selection of compounds
- tgt: Focal adhesion kinase 1 (Homo sapiens)
- assay-details: small-molecule microarray binders of FAK, primary screen, biochemical, 635/667 nm fluorescence, BSA, DTT (AID 1130);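 also: composite of spot emission at 667 nm and signal to noise over triplicate slides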
- conditions-used: PTK2 binding, 635 nm fluorescence, higher = more signal
Answer with a number only.

Answered examples (3):
The compound "[N-]=[N+]=NCc1ccccc1C[C@@]1(C(=O)NCCN2CCOCC2)N=C(c2ccc(OCCCO)cc2)O[C@@H]1c1ccccc1" , tested on Focal adhesion kinase 1 (Homo sapiens), showed composite z-score of 0.444

The compound "COc1ccc([Si](C)(C)[C@H]2[C@H](CC(=O)N3CCC[C@H]3CO)O[C@@]3(C(=O)N(C)c4ccccc43)[C@@H]2C)cc1" , tested on Focal adhesion kinase 1 (Homo sapiens), showed composite z-score of -0.0086

The compound "Cc1ccc(S[C@]2(C(=O)NCCN3CCOCC3)CC(=O)N(C(C)C)[C@@H]2c2ccc(CO)cc2I)cc1" , tested on Focal adhesion kinase 1 (Homo sapiens), showed composite z-score of 0.218

Consider the record given below.
The compound "C=C(COC)/C(=C/C[C@@H](OC(C)=O)c1cccc(OCCO)c1)c1cnc2ccccc2c1" , tested on Focal adhesion kinase 1 (Homo sapiens), showed composite z-score of -0.012
